Tested on: BDF1 mice, B16 melanoma ip, median survival T/C
protocol details: NCI In Vivo Anticancer Drug Screen. Data for tumor model B16 Melanoma (intraperitoneal) in B6D2F1 (BDF1) mice
test parameters: endpoint: median survival time; dose: 25.0 mg/kg/injection; schedule: Q01DX009 (ip); vehicle: Klucel (hydroxypropylcellulose) (HPC)
Inconclusive results and toxic doses are left out. Rule for the calls: active = survival T/C of 150% or more; inactive = T/C below 125% in these data.
Permitted responses: active, inactive

Sample answers from the record:
- CC(C)N(C(=O)c1ccccc1Cl)c1ccccc1: inactive
- CCC1=C(c2cc(Cl)c3ccccc3c2OCC(=O)O)OC(CC)(C(=O)c2cc(Cl)c3ccccc3c2OCC(=O)O)CC1 (stereo not drawn): inactive
- O=C(Nc1cccc(C(F)(F)F)c1)c1cccc(C(=O)Nc2cccc(C(F)(F)F)c2)c1: inactive
- COc1ccc(CCN2C(=O)CSC2=S)cc1OC: inactive
- C[Se]c1ncnc2c1c(C#N)cn2C1OC(CO)C(O)C1O (stereo not drawn): inactive

Look up the recorded call for CCCCCCCCCC(O)CCCC (stereo not drawn) in this test.
inactive

----------
System: BDF1 mice, B16 melanoma ip, median survival T/C
protocol details: NCI In Vivo Anticancer Drug Screen. Data for tumor model B16 Melanoma (intraperitoneal) in B6D2F1 (BDF1) mice
test parameters: endpoint: median survival time; dose: 50.0 mg/kg/injection; schedule: Q01DX009 (ip); vehicle: saline; higher = longer survival
Inconclusive results and toxic doses are left out. Square brackets hold non-standard residues; d marks the D form. Peptide text beside a SMILES is read from it. Abu = CC[CH](N)C(=O)O
Overview of recorded T/C for various compounds

Reference set, count: 2
- CC(C)N(Cc1ccccc1)CC(O)c1ccc(Cl)cc1 (stereo not drawn): 101 % of control
- CCC(N)C(=O)NC(C(N)=O)C(C)C (stereo not drawn) (H-[Abu]-Val-NH2; configuration not given here): 90 % of control

Reported T/C for CN(C)CCCN1c2ccccc2S(=O)c2ccc(Cl)cc21 (stereo not drawn) : what is it?
108 % of control

Reported T/C for O=C(O)c1cccc(S(=O)(=O)N(CCO)CCO)c1 : what is it?
92 % of control

Reported T/C for COC(=O)C1=CCCN(C)C1 : what is it?
115 % of control

Reported T/C for CNCCCN1c2ccccc2CCc2ccccc21 : what is it?
101 % of control

Reported T/C for C[N+](C)(C)c1ncnc2c1ncn2C1CCCO1 (stereo not drawn) : what is it?
111 % of control

Reported T/C for COc1ccc2c(=O)cc(-c3ccccc3)[nH]c2c1 : what is it?
120 % of control

Reported T/C for CCC1C(=O)NC(=O)C1(C)c1ccccc1 (stereo not drawn) : what is it?
108 % of control

Reported T/C for Cc1nn(C2CC(O)C(O)C(CO)O2)c(=O)[nH]c1=O (stereo not drawn) : what is it?
95 % of control

Reported T/C for CNCC(C)(C)c1ccccc1 : what is it?
100 % of control

Reported T/C for C1=NCCCN1 : what is it?
117 % of control

Reported T/C for O=S(=O)(O)O.[Ga] : what is it?
91 % of control

----------
Tested on: BDF1 mice, B16 melanoma ip, median survival T/C
protocol details: NCI In Vivo Anticancer Drug Screen. Data for tumor model B16 Melanoma (intraperitoneal) in B6D2F1 (BDF1) mice
test parameters: endpoint: median survival time; dose: 25.0 mg/kg/injection; schedule: Q01DX009 (ip); vehicle: Klucel (hydroxypropylcellulose) (HPC)
Inconclusive results and toxic doses are left out. How the source made its calls: active means survival T/C of 150% or more; inactive means T/C below 125% in these data.
Permitted responses: class 1 = active, class 0 = inactive

Sample answers from the record:
- O=C(NC(Cc1ccccc1)C(=O)CCl)OCc1ccccc1 (stereo not given): class 0
- CC[n+]1ccc(/C=C\c2c(Cl)cccc2Cl)cc1: class 0
- CC[CH](C)[Hg][c]1cccc2ccccc12 (stereo not given): class 0

Look up the recorded call for CC(=O)[C@H]1CC[C@H]2[C@@H]3C[C@H](F)C4=CC(=O)CC[C@]4(C)[C@@]3(F)[C@@H](O)C[C@]12C in this test.
class 0

Look up the recorded call for Cc1ccc(S(=O)(=O)NC(=O)C2C(=O)CC3(CCCCC3)CC2=O)cc1 in this test.
class 0

Look up the recorded call for Cc1cc(N(CCOS(C)(=O)=O)CCOS(C)(=O)=O)ccc1C=Nc1ccc(-c2nc(Cc3ccccc3)sc2C)cc1 in this test.
class 1

Look up the recorded call for CC(CCc1ccccc1)NC(C)C(O)c1ccc(O)cc1 (stereo not given) in this test.
class 0
